assay: modulation of TERT promoter-driven luciferase – cell-based, luciferase reporter, human, primary screen (AID 1259240); conditions: A2780 TERT promoter luciferase reporter, 16 h; at 20 µM, fold versus average of vehicle-only wells
The source made the active and inactive calls. Cut-off read from the data, not from the text of the source: active = fold change mostly below about -2 (no sharp cut-off); inactive = mostly above about -1.8.
Outcomes: T (active), F (inactive)

[
  {
    "Molecule": "Cc1nc2c(-c3ccc(F)cc3)c(C)nn2c(C)c1CCC(=O)NC(C)C",
    "Assigned class": "F"
  },
  {
    "Molecule": "O=C(Cc1ccc(NC2=NC3CS(=O)(=O)CC3S2)cc1)NCc1ccco1 (centres undefined)",
    "Assigned class": "F"
  },
  {
    "Molecule": "CCn1c(Oc2ccccc2)nc2c1c(=O)n(C)c(=O)n2C",
    "Assigned class": "F"
  },
  {
    "Molecule": "NC(=O)C1CCN(C(=O)CN2C(=O)COc3ccc(S(=O)(=O)N4CCCC4)cc32)CC1",
    "Assigned class": "F"
  },
  {
    "Molecule": "COc1ccc2nc(C)c(C(=O)OCCN(C)C)cc2c1",
    "Assigned class": "F"
  },
  {
    "Molecule": "COc1ccccc1OCC(O)Cn1c(=N)n(CCN2CCOCC2)c2ccccc21 (centres undefined)",
    "Assigned class": "F"
  },
  {
    "Molecule": "Cc1ccc(-n2c(C)c3c(C)nn4cc(C)cc4c3c2C)cc1",
    "Assigned class": "T"
  },
  {
    "Molecule": "Cc1cc(/C=C2/SC(=S)N(CC(=O)O)C2=O)c(C)n1-c1ccncc1",
    "Assigned class": "T"
  },
  {
    "Molecule": "COC(=O)CSc1nnc2sc3ccccc3n12",
    "Assigned class": "F"
  },
  {
    "Molecule": "COc1ccc(C(=O)CSc2nnc(Cc3cc(=O)[nH]c(=O)[nH]3)n2-c2ccc(Cl)cc2)cc1",
    "Assigned class": "F"
  },
  {
    "Molecule": "CC(=O)N1CCC(N(C(=O)Nc2ccc(F)cc2)C2CCCC2)CC1",
    "Assigned class": "F"
  },
  {
    "Molecule": "CCCc1nnc(NC(=O)Nc2ccccc2Cl)s1",
    "Assigned class": "F"
  },
  {
    "Molecule": "COc1cc2c(=O)c(S(=O)(=O)c3ccccc3)cn(Cc3ccccc3Cl)c2cc1OC",
    "Assigned class": "F"
  },
  {
    "Molecule": "CN(CC(=O)Nc1ccc(Br)cc1)S(=O)(=O)c1ccc2c(c1)CCC(=O)N2",
    "Assigned class": "F"
  },
  {
    "Molecule": "CCOC(=O)/C(=N\\OC)c1cn2cc(Br)ccc2n1",
    "Assigned class": "F"
  },
  {
    "Molecule": "O=C(NCc1ccccn1)c1cccn2c(=O)c3c4c(sc3nc12)CCCC4",
    "Assigned class": "F"
  },
  {
    "Molecule": "Cn1c(=O)c2c(SCC(=O)N3CCOCC3)nc(-c3ccco3)nc2n(C)c1=O",
    "Assigned class": "F"
  },
  {
    "Molecule": "CCOC(=O)N1CCN(c2c(NCC3CCCO3)c(=O)c2=O)CC1 (centres undefined)",
    "Assigned class": "F"
  },
  {
    "Molecule": "CCOC(=O)CN1CC23C=CC(O2)C(C(=O)Nc2ccc(OCC)cc2)C3C1=O (centres undefined)",
    "Assigned class": "F"
  },
  {
    "Molecule": "COc1ccc(-n2c(-c3ccco3)nc3c(cnn3-c3ccc(Cl)cc3)c2=O)cc1",
    "Assigned class": "F"
  },
  {
    "Molecule": "O=C(O)C1CCN(c2nc3ccccc3n2Cc2ccccc2F)CC1",
    "Assigned class": "F"
  },
  {
    "Molecule": "Cc1ccc2nc(NCc3ccc4c(c3)OCO4)c3nncn3c2c1",
    "Assigned class": "F"
  },
  {
    "Molecule": "Cc1cc(C)cc(-c2nc(-c3cccnc3)no2)c1",
    "Assigned class": "T"
  },
  {
    "Molecule": "Fc1ccc(CNc2nnc(Cc3ccncc3)c3ccccc23)cc1",
    "Assigned class": "F"
  },
  {
    "Molecule": "Clc1ccc(CNc2ccc3nncn3n2)cc1",
    "Assigned class": "F"
  },
  {
    "Molecule": "O=C(CSc1nc2sc3c(c2c(=O)[nH]1)CCCC3)N1CCOCC1",
    "Assigned class": "T"
  },
  {
    "Molecule": "Cn1c(=O)cc(SCC(=O)Nc2nc3ccccc3[nH]2)c2ccccc21",
    "Assigned class": "F"
  },
  {
    "Molecule": "COc1cc(Cl)cc(OC)c1NC(=O)Nc1ccc2snnc2c1",
    "Assigned class": "F"
  },
  {
    "Molecule": "Cc1cccc(CCn2c(=O)c3ccccc3n(Cc3cc(=O)n4ccccc4n3)c2=O)c1",
    "Assigned class": "F"
  },
  {
    "Molecule": "CCN1CCN(C(=O)c2cc3c(=O)[nH]c4ccccc4c3n2C)CC1",
    "Assigned class": "F"
  },
  {
    "Molecule": "COc1ccc(S(=O)(=O)c2cc3ccc(O)cc3oc2=O)cc1OC",
    "Assigned class": "F"
  },
  {
    "Molecule": "Cn1c(SCC(=O)N2CCOCC2)nnc1-c1c[nH]c2ccccc12",
    "Assigned class": "F"
  },
  {
    "Molecule": "CC(C)C(NS(=O)(=O)c1cccc2nsnc12)C(=O)N1CCCCCC1 (centres undefined)",
    "Assigned class": "F"
  },
  {
    "Molecule": "CC(C)n1cnc2cc(NCc3ccccn3)ccc21",
    "Assigned class": "F"
  },
  {
    "Molecule": "CCN(CC)C(=O)C1=C(C)Nc2nc3ccccc3n2C1c1ccncc1 (centres undefined)",
    "Assigned class": "F"
  },
  {
    "Molecule": "O=C(NCC1(c2ccccc2)CCCC1)c1ccc2c(=O)n3c(nc2c1)CCCCC3",
    "Assigned class": "F"
  },
  {
    "Molecule": "CCc1nccn1S(=O)(=O)c1ccc(OC)c(OC)c1",
    "Assigned class": "T"
  },
  {
    "Molecule": "Fc1ccc(-c2nnc3ccc(N4CCOCC4)nn23)cc1",
    "Assigned class": "F"
  },
  {
    "Molecule": "CC(C)(C)c1ccc(OCc2nc(-c3ccncc3)no2)c(Br)c1",
    "Assigned class": "F"
  }
]

---

test: modulation of TERT promoter-driven luciferase – cell-based, luciferase reporter, human, primary screen (AID 1259240); conditions: A2780 TERT promoter luciferase reporter, 16 h; at 20 µM, fold versus average of vehicle-only wells
Activity calls are given as the source filed them. Cut-off read from the data, not from the text of the source: active = fold change mostly below about -2 (no sharp cut-off); inactive = mostly above about -1.8.
Outcomes: 1 (active), -1 (inactive)

[
  {
    "Molecule": "CC(C)OCCCNC(=O)c1ccc(NC2=NC3CS(=O)(=O)CC3S2)cc1 (stereo not drawn)",
    "Assigned class": -1
  },
  {
    "Molecule": "CC(CCc1ccco1)NC(=O)Cn1ncc2c1-c1ccccc1OC2 (stereo not drawn)",
    "Assigned class": -1
  },
  {
    "Molecule": "O=c1oc2cc(O)ccc2cc1-c1nnc(Nc2ccccc2)s1",
    "Assigned class": 1
  },
  {
    "Molecule": "O=C(NC1(C(F)(F)F)NC(=O)N(Cc2ccco2)C1=O)c1ccncc1 (stereo not drawn)",
    "Assigned class": 1
  },
  {
    "Molecule": "CNC(=O)c1ccc(-c2nn(C)c(=O)c3ccccc23)cc1",
    "Assigned class": -1
  },
  {
    "Molecule": "CC(C)SC1=NSC2=NC(=O)/C(=C\\c3ccco3)C(=N)N21",
    "Assigned class": -1
  },
  {
    "Molecule": "Cc1ccc(CN2C(=O)C(C(C)C(=O)NCC3CCCO3)Sc3ccccc32)cc1 (stereo not drawn)",
    "Assigned class": -1
  },
  {
    "Molecule": "CC(C)(C)NC(=O)Cn1c(=O)oc2ccc(Cl)cc21",
    "Assigned class": 1
  },
  {
    "Molecule": "COc1cccc(CNc2nc3ccccc3n3cnnc23)c1",
    "Assigned class": -1
  },
  {
    "Molecule": "CCN1CCN(C(=O)CN2C(=O)COc3ccc(S(=O)(=O)N4CCC(C)CC4)cc32)CC1",
    "Assigned class": -1
  },
  {
    "Molecule": "CCCCN(C)C(=O)Cn1ncc2c3ccccc3n(C)c2c1=O",
    "Assigned class": -1
  },
  {
    "Molecule": "c1ccc(-c2nnc3ccc(NCCCN4CCc5ccccc5C4)nn23)cc1",
    "Assigned class": -1
  },
  {
    "Molecule": "CN1C(=O)/C(=C/c2cn(CC(N)=O)c3ccccc23)c2ccccc21",
    "Assigned class": -1
  },
  {
    "Molecule": "COc1ccccc1Nc1nc(N)nc(CSc2ncccn2)n1",
    "Assigned class": -1
  },
  {
    "Molecule": "Cc1cc(NS(=O)(=O)c2ccc(NC(=O)[C@@H]3CCCC[C@@H]3C(=O)O)cc2)no1",
    "Assigned class": -1
  },
  {
    "Molecule": "Cc1nc(SCc2c(F)cccc2Cl)c2c(=O)n(C)c(=O)n(C)c2n1",
    "Assigned class": -1
  },
  {
    "Molecule": "COc1ccc(Cl)cc1N1CC(O)=C(c2nc3ccccc3c(=O)[nH]2)C1=N",
    "Assigned class": -1
  },
  {
    "Molecule": "O=C(NC1CCCCCC1)C1CCC(CNc2c(NC3CCCCC3)c(=O)c2=O)CC1 (stereo not drawn)",
    "Assigned class": -1
  },
  {
    "Molecule": "CCCc1nc2ccccc2c2nc(N)nn12",
    "Assigned class": 1
  },
  {
    "Molecule": "CCCCC1=NN(C(=O)C(=O)Nc2ccc(Br)cc2)C(O)(C(F)(F)F)C1 (stereo not drawn)",
    "Assigned class": -1
  },
  {
    "Molecule": "COCCN1C(=O)C(=O)/C(=C(\\O)c2ccc(C)cc2)C12C(=O)N(C)c1ccccc12 (stereo not drawn)",
    "Assigned class": -1
  },
  {
    "Molecule": "Cc1nn2c3cc(N4CCOCC4)ccc3nc2c2ccccc12",
    "Assigned class": 1
  },
  {
    "Molecule": "Cc1csc(NC(=O)C2=CCN(S(=O)(=O)c3ccccc3)CC2)n1",
    "Assigned class": -1
  },
  {
    "Molecule": "O=C(CCN1C(=O)c2ccccc2S1(=O)=O)Nc1cc(Cl)ccc1Cl",
    "Assigned class": -1
  },
  {
    "Molecule": "Cc1ccc(-n2c(-c3ccco3)nc3c(cnn3-c3ccccc3C)c2=O)cc1F",
    "Assigned class": -1
  },
  {
    "Molecule": "CCN(CC)C(=O)Nc1ccc2snnc2c1",
    "Assigned class": -1
  },
  {
    "Molecule": "Cc1c(NC(=O)c2ncn[nH]2)c(=O)n(-c2ccccc2)n1C",
    "Assigned class": -1
  },
  {
    "Molecule": "CN(CC(=O)NCC1CCCO1)S(=O)(=O)c1ccc2c(c1)c(=O)n(C)c(=O)n2C (stereo not drawn)",
    "Assigned class": -1
  },
  {
    "Molecule": "Fc1ccc(-c2ncc3ccccn23)cc1",
    "Assigned class": -1
  },
  {
    "Molecule": "N=C1C(c2nc3ccccc3c(=O)[nH]2)=C(O)CN1c1ccc(Cl)c(Cl)c1",
    "Assigned class": 1
  },
  {
    "Molecule": "CCNc1nc(C(=O)O)nc(N2CCOCC2)n1",
    "Assigned class": -1
  },
  {
    "Molecule": "COc1ccc(C2=NN3C(C2)c2cc(Cl)ccc2OC3c2cccnc2)cc1 (stereo not drawn)",
    "Assigned class": -1
  },
  {
    "Molecule": "CCCN(CCC)CCCNc1ccc2nncn2n1",
    "Assigned class": -1
  },
  {
    "Molecule": "CN(C)c1ccc(/C=C2/SC(=S)NC2=O)cc1",
    "Assigned class": 1
  },
  {
    "Molecule": "c1ccc(N2CCN(c3nc4ccccc4n4cnnc34)CC2)cc1",
    "Assigned class": -1
  },
  {
    "Molecule": "CC(C)(C)OC(=O)CN1C(=O)c2ccccc2S1(=O)=O",
    "Assigned class": -1
  },
  {
    "Molecule": "c1ccc2c(NCCCN3CCOCC3)c3c(nc2c1)CCCC3",
    "Assigned class": -1
  },
  {
    "Molecule": "CN1CCN(C(=O)c2ccc3c(Cl)c4c(nc3c2)CCC4)CC1",
    "Assigned class": -1
  }
]
